- test target: purified recombinant linear UB trimers

# protein, in vitro deubiquitylation activity
measured = [
    ("GST-OTU10 (protein) MVSHEENTSIVEWFLGPHPYTYPPYGIEMIHEDDEVAVAHHHHHHQSGEYYREYEDHRSSDVDNDEIIARTLQDDFLQLEIAESNDYSHQNQQQQHQQEGYTNNYSNNNNGYAWNDQSPAVDYSSEWIGNDNDQDGRSDDSVNVFSCSSPSDTDEYVYSWESDQCDADGEFGRRLNQMVPIPYIPKINGEIPPEEEAVSDHERLRNRLEMFDFTEVKVPGDGNCQFRALADQLYKTADRHKHVRRQIVKQLKSRPDSYQGYVPMDFSDYLRKMSRSGEWGDHVTLQAAADAYRVKIVVLTSFKDTCYIEILPTSQESKGVIFLSFWAEVHYNAIYLNRDTSETELQRKRKWWRFGN", "-"),
    ("GST-OTU4c (protein) MMICYSPITTCSRNAISIKRHLGSRLYGVVAHGSSKFSCYSLLSGLSRRHYTGFRVSVSNRPSSWHDKGLFGFAYTGVIVSLLVCYSSTSQSAYADSSRDKDANNVHHHSSDGKFHNGKRVYTDYSIIGIPGDGRCLFRSVAHGFCLRSGKLAPGEKMQRELADELRTRVADEFIQRRQETEWFVEGDFDTYVRQIRDPHVWGGEPELFMASHVLQMPITVYMKDDKAGGLISIAEYGQEYGKDDPIRVLYHGFGHYDALLLHESKASIPKSKL", "++"),
]

Cited source for all entries: patent US20150353909
